This collection of values is drawn from paper PMC9782626.

System: EB–DNA conjugate (CT DNA)
Test: EB-displacement studies (fluorescence of EB-DNA conjugate)
Type: binding, calf
Conditions: [EB] = 20 µM, [DNA] = 26 µM
Property: Stern–Volmer constant Ksv (EB–DNA); scope: individual compounds

Examples with answers:
[[record]]
compound = "O=Cc1cc(F)ccc1[O-].O=[N+]([O-])[O-].[Cu+2].c1cnc2c(c1)ccc1cccnc12 [Complex 4, [Cu(5–F–salo)(phen)(NO3)]]"
reported_metric = "Stern–Volmer constant Ksv (EB–DNA)"
value = "6.77 (±0.07) × 10^4 M^−1"

[[record]]
compound = "O=Cc1cc(F)ccc1[O-].O=Cc1cc(F)ccc1[O-].[Cu+2] [Complex 1, [Cu(5–F–salo)2]]"
reported_metric = "Stern–Volmer constant Ksv (EB–DNA)"
value = "1.56 (±0.02) × 10^5 M^−1"

[[record]]
compound = "O=Cc1cc(F)ccc1[O-].[Cl-].[Cu+2].c1ccc(Nc2ccccn2)nc1 [Complex 2, [Cu(5–F–salo)(bipyam)Cl]]"
reported_metric = "Stern–Volmer constant Ksv (EB–DNA)"
value = "6.23 (±0.11) × 10^4 M^−1"

[[record]]
compound = "CO.Cc1ccc2ccc3ccc(C)nc3c2n1.O=Cc1cc(F)ccc1[O-].[Cl-].[Cu+2] [Complex 3, [Cu(5–F–salo)(neoc)Cl].CH3OH]"
reported_metric = "Stern–Volmer constant Ksv (EB–DNA)"
value = "3.35 (±0.05) × 10^4 M^−1"


Now look at this entry.
Please report Stern–Volmer constant Ksv (EB–DNA) for the following compound: O=Cc1cc(F)ccc1[O-].O=[N+]([O-])[O-].[Cu+2].c1ccc(-c2ccccn2)nc1 [Complex 5, [Cu(5–F–salo)(bipy)(NO3)]]
3.14 (±0.06) × 10^4 M^−1
